Where do the numbers come from? From a melting point compilation (Tetko et al.; mined from patent text by program, amines drawn as free bases though some values may be those of a salt).

Quick reference for melting point among some compounds
measured.endpoint: melting point

1) OC(CCc1ccccc1)c1cnc2sc3c(n12)CCCCCC3 (configuration not stated) : 123 to 124 °C
2) COc1ccc(CNc2nc(OCc3ccccn3)ncc2C(=O)O)cc1Cl : 201 to 203 °C
3) Cc1ccc(-c2nc(Cc3cc4cc(CO)ccc4o3)c(C)o2)cc1 : 156 to 160 °C
4) CC(C)(C)c1cc(NC(=O)Nc2ccc(-c3c(C(N)=O)[nH]c4ccccc34)cc2)no1 : 176 to 178 °C
5) C=CC[C@H](C(=O)NC)c1ccc(Cl)c(Cl)c1 : 104 to 105 °C
6) COC(=O)c1cc(O)ccc1N : 154 to 155 °C
7) C=C(C)c1ccccc1C(=O)O : 71.6 to 72.5 °C
8) CCCN1CCC(n2nc(-c3c(-c4ccccc4)nn4ccccc34)ccc2=O)CC1 : 104 to 106 °C
9) Clc1cccc(-n2c(/C=C/c3ccccc3)nc3ccccc32)n1 : 122 to 123 °C
10) Nc1nc(N)c(-c2ccc(Cl)cc2Cl)c(COCc2ccccc2)n1 : 171 to 172 °C
11) CNC(=O)n1cnc(C(N)=O)c1N : 165 to 169 °C
12) Cc1oc(-c2ccccc2)nc1COc1ccc(COc2cccc(CCC(=O)O)c2)cc1 : 157 to 158 °C
13) Cc1ccc(-c2ccc3c(c2)C=C(C(=O)Nc2ccc(CN4CCC(O)CC4)cc2)CC3)cc1 : 223 to 224 °C
14) CS(=O)(=O)c1ccc(C(CC2CCCC2)C(=O)Nc2nccs2)cc1Br (configuration not stated) : 106 to 107 °C
15) CCOC(=O)c1cnc2c(OC)csc2c1Nc1ccccc1C : 141 to 143 °C
16) C=Cc1ccc(C(=O)Oc2ccc(C(=O)O)cc2)cc1C12CC3CC(CC(C3)C1)C2 : 86 to 87 °C
17) CC(C)(C)c1cc(C2=NOC(CC(=O)Nc3ccc([N+](=O)[O-])cc3)C2)cc(C(C)(C)C)c1O (configuration not stated) : 149 to 151 °C
18) CN1CCC2(CC1)CN(c1ccccc1[N+](=O)[O-])c1cc(Cl)ccc12 : 130 to 131 °C
19) Cc1ccccc1Nc1nc(N(C)c2ccccc2)c2cccc(O)c2n1 : 174 to 175 °C
20) CCCN(CCC)c1c([N+](=O)[O-])cc(S(=O)(=O)N(C)SC)cc1[N+](=O)[O-] : 119 to 121 °C
21) CC(C)(C)N[C@@H]1Cc2c(O)cccc2C[C@H]1O (relative stereo) : 123 to 127 °C
22) CCCNC(=O)ON(C(=O)NCCC)C(=O)C1CC1 : 76 to 78 °C
23) O=C1Nc2cc(F)ccc2C1c1ncnc2nn(C3CCCC3)cc12 (configuration not stated) : 258 to 263 °C
24) CNC(=O)C(C)Oc1ncn(-c2ccc(Br)cc2)n1 (configuration not stated) : 176 to 178 °C
25) CN(C(=O)c1ccc2nonc2c1)C1CCOCC1 : 160 to 162 °C
26) CC(=O)Nc1ccc(C(=O)Nc2ccccc2NC(=O)CN)cc1 : 215 to 218 °C
27) CS(=O)(=O)OCCCc1cccc(OCc2coc(/C=C/c3ccccc3)n2)c1 : 75 to 76 °C
28) NCCNC(=O)Nc1ccc2[nH]ccc2c1 : 156 to 158 °C
29) Cc1cccc(/C=C/c2nc(COc3ccc(CCCCc4c[nH]c(CC(O)CO)n4)cc3)co2)c1 (configuration not stated) : 102 to 104 °C
30) N#Cc1cc(-c2c[nH]nc2-c2ccc(F)cc2)ccn1 : 209 °C
31) CS(=O)(=O)C=Cc1ccccc1 : 77 to 79 °C
32) N#Cc1ccc(C(=O)O)c(Cl)c1 : 154 to 158 °C
